The values you see were collected from patent US20070167492A1.

- System: Deroceras reticulatum (grey field slug)
- test summary: Example 1: pot test, treated winter wheat seed with 5 adult slugs per pot, 14 days
- Type: in vivo
- condition set: 8 ml formulated per kg seed; 10 days after sowing
Item-by-item account of Mean number of dead slugs per pot
Just the number, please, no unit attached.

COc1cc(C=CC(=O)O)cc(OC)c1 [dimethoxycinnamic acid, 3,5-dimethoxycinnamic acid]
0

Fill in the blank: the reported Mean number of dead slugs per pot of CNC(=O)Oc1cc(C)c(SC)c(C)c1 [methiocarb, 4-methylthio-3,5-xylyl methylcarbamate] is ____.
1.3

Fill in the blank: the reported Mean number of dead slugs per pot of CN1COCN(Cc2cnc(Cl)s2)/C1=N\[N+](=O)[O-] [thiamethoxam] is ____.
0

Fill in the blank: the reported Mean number of dead slugs per pot of O=[N+]([O-])NC1=NCCN1Cc1ccc(Cl)nc1 [imidacloprid] is ____.
0.3

---

- System: Deroceras reticulatum (grey field slug)
- test summary: Example 1: pot test, treated winter wheat seed with 5 adult slugs per pot, 14 days
- Assay type: in vivo
- condition set: 2 ml formulated per kg seed; 7 days after sowing
measurement kind: Mean number of dead slugs per pot

O=[N+]([O-])NC1=NCCN1Cc1ccc(Cl)nc1
0

Fill in the blank: the reported Mean number of dead slugs per pot of CC=C(C)C(=O)OC1CC(OC(C)=O)C2(C(=O)OC)COC3C2C12COC(O)(C(=O)OC)C2C(C)(C12OC1(C)C1CC2OC2OC=CC21O)C3O (stereo not shown) is ____.
0.3

Fill in the blank: the reported Mean number of dead slugs per pot of CN1COCN(Cc2cnc(Cl)s2)/C1=N\[N+](=O)[O-] is ____.
0

Fill in the blank: the reported Mean number of dead slugs per pot of CNC(=O)Oc1cc(C)c(SC)c(C)c1 [methiocarb, 4-methylthio-3,5-xylyl methylcarbamate] is ____.
0.3

Fill in the blank: the reported Mean number of dead slugs per pot of O=CC=Cc1ccccc1 is ____.
1.3

Fill in the blank: the reported Mean number of dead slugs per pot of COc1cc(C=CC(=O)O)cc(OC)c1 is ____.
0.3

Fill in the blank: the reported Mean number of dead slugs per pot of N#CN=C1SCCN1Cc1ccc(Cl)nc1 is ____.
0.5

---

Item-by-item account of Mean number of plants present per pot
- Test system: Deroceras reticulatum (grey field slug)
- test summary: Example 1: pot test, treated winter wheat seed with 5 adult slugs per pot, 14 days
- Type: in vivo
- condition set: 8 ml formulated per kg seed; 14 days after sowing
Just the number, please, no unit attached.

CNC(=O)Oc1cc(C)c(SC)c(C)c1 [methiocarb, 4-methylthio-3,5-xylyl methylcarbamate]
34.8
CN1COCN(Cc2cnc(Cl)s2)/C1=N\[N+](=O)[O-] [thiamethoxam]
5.5
O=[N+]([O-])NC1=NCCN1Cc1ccc(Cl)nc1 [imidacloprid]
10.5

Fill in the blank: the reported Mean number of plants present per pot of COc1cc(C=CC(=O)O)cc(OC)c1 [dimethoxycinnamic acid, 3,5-dimethoxycinnamic acid] is ____.
1.5

---

- System: Winter wheat (Kampa race) seeds
- test summary: Seed germination test of treated winter wheat seeds (rolled in paper)
- Format: in vivo
- condition set: 2 ml formulated per kg seed; 3x50 seeds, 6 days at 22° C.
Would you mind labelling by Percentage germinated? At or over 70% is label 1, under is label 0.

Answered cases to consult:
CNC(=O)Oc1cc(C)c(SC)c(C)c1 [methiocarb, 4-methylthio-3,5-xylyl methylcarbamate]
label 0
COc1cc(C=CC(=O)O)cc(OC)c1
label 1
N#CN=C1SCCN1Cc1ccc(Cl)nc1
label 1
O=CC=Cc1ccccc1
label 0
CC=C(C)C(=O)OC1CC(OC(C)=O)C2(C(=O)OC)COC3C2C12COC(O)(C(=O)OC)C2C(C)(C12OC1(C)C1CC2OC2OC=CC21O)C3O (stereo not shown)
label 1

I'd appreciate it if you could say whether O=[N+]([O-])NC1=NCCN1Cc1ccc(Cl)nc1 has Percentage germinated at least equal to 70%.
label 1

I'd appreciate it if you could say whether CN1COCN(Cc2cnc(Cl)s2)/C1=N\[N+](=O)[O-] has Percentage germinated at least equal to 70%.
label 1

---

Item-by-item account of Percentage germinated
- Tested on: Winter wheat (Kampa race) seeds
- test summary: Seed germination test of treated winter wheat seeds (rolled in paper)
- Format: in vivo
- condition set: 4 ml formulated per kg seed; 3x50 seeds, 6 days at 22° C.
Quick note: give the figure in %, leave out the unit.

Example entries begin here.
CNC(=O)Oc1cc(C)c(SC)c(C)c1 [methiocarb, 4-methylthio-3,5-xylyl methylcarbamate]
63
O=[N+]([O-])NC1=NCCN1Cc1ccc(Cl)nc1 [imidacloprid]
89
COc1cc(C=CC(=O)O)cc(OC)c1 [dimethoxycinnamic acid, 3,5-dimethoxycinnamic acid]
75
CN1COCN(Cc2cnc(Cl)s2)/C1=N\[N+](=O)[O-] [thiamethoxam]
78

Now for a further compound.
Fill in the blank: the reported Percentage germinated of O=CC=Cc1ccccc1 [cinnamaldehyde] is ____.
0

---

Item-by-item account of Mean number of plants present per pot
- System: Deroceras reticulatum (grey field slug)
- test summary: Example 1: pot test, treated winter wheat seed with 5 adult slugs per pot, 14 days
- Assay type: in vivo
- condition set: 2 ml formulated per kg seed; 14 days after sowing
Just the number, please, no unit attached.

COc1cc(C=CC(=O)O)cc(OC)c1
0
CNC(=O)Oc1cc(C)c(SC)c(C)c1 [methiocarb, 4-methylthio-3,5-xylyl methylcarbamate]
21.3

Query the reported Mean number of plants present per pot for Deroceras reticulatum (grey field slug); item: N#CN=C1SCCN1Cc1ccc(Cl)nc1
29.3

---

Item-by-item account of Percentage germinated
- Tested on: Winter wheat (Kampa race) seeds
- test summary: Seed germination test of treated winter wheat seeds (rolled in paper)
- Format: in vivo
- condition set: 8 ml formulated per kg seed; 3x50 seeds, 6 days at 22° C.
Note: a bare number is incomplete; add the unit.

COc1cc(C=CC(=O)O)cc(OC)c1
38%
CNC(=O)Oc1cc(C)c(SC)c(C)c1 [methiocarb, 4-methylthio-3,5-xylyl methylcarbamate]
27%
CN1COCN(Cc2cnc(Cl)s2)/C1=N\[N+](=O)[O-]
61%

Now for a further molecule.
Query the reported Percentage germinated for Winter wheat (Kampa race) seeds; item: O=[N+]([O-])NC1=NCCN1Cc1ccc(Cl)nc1
71%

---

Item-by-item account of Mean number of plants present per pot
- Tested on: Deroceras reticulatum (grey field slug)
- test summary: Example 1: pot test, treated winter wheat seed with 5 adult slugs per pot, 14 days
- Type: in vivo
- condition set: 2 ml formulated per kg seed; 14 days after sowing
- Method: Winter wheat (Kampa race; thousand grain weight of 51 grams) was used in an experiment to test the efficacy of the compositions of the present inventions in relation to known molluscicidal compounds. […] Following the addition of the slugs, the number of damaged seeds was counted after 2, 3, 7, 10 and 14 days. The number of plants present (germinated and not eaten or damaged by the slugs) was determined 3, 7, 10 and 14 days after the start of the test. […]

CN1COCN(Cc2cnc(Cl)s2)/C1=N\[N+](=O)[O-]
0.3
O=CC=Cc1ccccc1
6.8

Fill in the blank: the reported Mean number of plants present per pot of O=[N+]([O-])NC1=NCCN1Cc1ccc(Cl)nc1 is ____.
3.3

Fill in the blank: the reported Mean number of plants present per pot of CC=C(C)C(=O)OC1CC(OC(C)=O)C2(C(=O)OC)COC3C2C12COC(O)(C(=O)OC)C2C(C)(C12OC1(C)C1CC2OC2OC=CC21O)C3O (stereo not shown) is ____.
0.8
